Test: modulators of HCV replicon luciferase signal, primary screen, HCV replication inhibitor project, Huh7 cells, luciferase reporter (AID 1109);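 further: huh7 hepatoma cells harbouring a luciferase neomycin HCV replicon reporter; luciferase luminescence as measure of HCV replicon replication; test concentration not given here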
Conditions: 48 h, higher = more signal
Measurement type: z-score
Numbers only.

INSERT INTO results (given_smiles, measurement_type, val) VALUES
  ('COC(=O)[C@@]1(Cc2ccc(F)cc2)[C@H]2c3cc(C(=O)N4CCCC4)n(Cc4ccc(OC(F)(F)F)cc4)c3C[C@H]2CN1C(=O)c1ccccc1', 'z-score', 0.234);

Lab note: each compound below needs its z-score filled in.
1. C=CC[C@]1(C(=O)NCCN2CCOCC2)N=C(c2ccc(OCCCO)cc2)O[C@H]1c1ccccc1
2. C[N+](C)(C)CCCC[C@@H]1NC(=O)[C@H]2C[C@@H](C(=O)NCCCCCN)[C@@H](c3ccc(O)cc3)N2C1=O
3. CCOC(=O)C[C@H]1[C@H](OC(=O)c2cc3ccccc3oc2=O)[C@@H](NC(=O)Cc2ccc(OC)cc2)c2cc(OCCCO)ccc2N1C(=O)Cc1ccc(OC)cc1
4. CCCCCCc1nc(-c2ccc(OC)nc2)c(C)c2c1[Si](C(C)C)(C(C)C)OC2

## Output
-0.633
0.493
-1.73
-0.603
